Every entry's value here was drawn from ChEMBL document CHEMBL4033670.

# Tested on: Plasmodium falciparum
# assay-procedure: Antimalarial activity against ring stage chloroquine-resistant Plasmodium falciparum W2 preincubated for 48 hrs measured after 48 hrs in presence of 10% human serum by YOYO-1 dye-based FACS analysis
# Assay type: functional
Please note: MIC99 exactly at 0.3 µM is no (0). Only values below 0.3 µM get yes (1).

[[record]]
molecule = "CCC(C)C(C(=O)Nc1ccc(C(C)=O)cc1)N(C(=O)c1ccccc1)S(=O)(=O)c1ccc([N+](=O)[O-])cc1 (stereo not drawn)"
cat = "yes (1)"

[[record]]
molecule = "CCN(CC)CCCC(C)Nc1ccnc2cc(Cl)ccc12 (stereo not drawn)"
cat = "yes (1)"

[[record]]
molecule = "CC(=O)c1ccc(NC(=O)C(CC(C)C)N(C(=O)c2ccccc2)S(=O)(=O)c2ccccc2)cc1 (stereo not drawn)"
cat = "yes (1)"

[[record]]
molecule = "CC(=O)c1ccc(NC(=O)CN(C(=O)c2ccccc2)S(=O)(=O)c2ccc(C)cc2)cc1"
cat = "no (0)"

[[record]]
molecule = "CC(=O)c1ccc(NC(=O)C(Cc2ccccc2)N(C(=O)c2ccccc2)S(=O)(=O)c2ccc([N+](=O)[O-])cc2)cc1 (stereo not drawn)"
cat = "yes (1)"

[[record]]
molecule = "CC(=O)c1ccc(NC(=O)C(C(C)C)N(C(=O)c2ccccc2)S(=O)(=O)c2ccccc2)cc1 (stereo not drawn)"
cat = "no (0)"

[[record]]
molecule = "CC(=O)c1ccc(NC(=O)C(C(C)C)N(C(=O)c2ccccc2)S(=O)(=O)c2ccc(C)cc2)cc1 (stereo not drawn)"
cat = "no (0)"

[[record]]
molecule = "CC(=O)c1ccc(NC(=O)C2CC(O)CN2S(=O)(=O)c2ccc(C)cc2)cc1 (stereo not drawn)"
cat = "no (0)"

